study system: Met (phospho-Met, HGF-stimulated PC-3 prostate cancer cells) (Homo sapiens (Human), UniProt P08581)
Sequence (P08581 25-1390): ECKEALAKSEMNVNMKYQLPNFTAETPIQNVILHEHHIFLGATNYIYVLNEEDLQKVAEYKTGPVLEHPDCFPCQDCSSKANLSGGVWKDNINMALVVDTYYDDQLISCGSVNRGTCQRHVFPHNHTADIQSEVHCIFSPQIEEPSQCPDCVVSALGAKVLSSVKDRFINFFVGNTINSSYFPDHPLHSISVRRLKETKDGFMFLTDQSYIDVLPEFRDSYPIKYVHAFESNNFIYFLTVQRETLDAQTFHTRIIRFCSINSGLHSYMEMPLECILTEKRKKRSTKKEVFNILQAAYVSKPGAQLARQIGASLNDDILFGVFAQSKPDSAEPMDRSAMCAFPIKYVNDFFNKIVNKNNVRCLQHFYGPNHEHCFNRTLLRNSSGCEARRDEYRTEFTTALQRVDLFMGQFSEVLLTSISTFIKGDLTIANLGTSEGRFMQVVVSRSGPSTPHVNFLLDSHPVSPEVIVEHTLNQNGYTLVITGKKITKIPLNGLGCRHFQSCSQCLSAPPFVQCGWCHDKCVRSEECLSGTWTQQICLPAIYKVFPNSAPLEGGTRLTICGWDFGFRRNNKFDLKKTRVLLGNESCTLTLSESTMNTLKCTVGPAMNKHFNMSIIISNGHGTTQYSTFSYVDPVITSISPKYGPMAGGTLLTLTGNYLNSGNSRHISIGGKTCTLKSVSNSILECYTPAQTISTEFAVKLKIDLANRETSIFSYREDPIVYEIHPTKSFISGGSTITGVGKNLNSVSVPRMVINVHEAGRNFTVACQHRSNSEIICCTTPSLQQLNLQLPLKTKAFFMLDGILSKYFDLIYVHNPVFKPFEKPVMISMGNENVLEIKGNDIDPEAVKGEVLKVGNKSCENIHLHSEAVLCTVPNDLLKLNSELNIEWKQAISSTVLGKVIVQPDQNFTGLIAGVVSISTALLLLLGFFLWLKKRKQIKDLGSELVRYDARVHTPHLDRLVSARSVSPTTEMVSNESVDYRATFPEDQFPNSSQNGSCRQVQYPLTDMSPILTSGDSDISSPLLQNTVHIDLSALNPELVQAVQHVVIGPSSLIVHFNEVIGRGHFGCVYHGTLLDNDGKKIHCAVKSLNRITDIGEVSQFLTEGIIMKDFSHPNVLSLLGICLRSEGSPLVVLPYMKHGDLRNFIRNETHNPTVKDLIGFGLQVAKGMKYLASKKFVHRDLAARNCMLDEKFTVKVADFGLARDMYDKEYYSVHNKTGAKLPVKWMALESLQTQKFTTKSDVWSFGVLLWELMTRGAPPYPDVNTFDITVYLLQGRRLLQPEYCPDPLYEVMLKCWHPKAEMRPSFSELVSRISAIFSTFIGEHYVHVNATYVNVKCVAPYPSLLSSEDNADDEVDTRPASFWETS
test description: Met autophosphorylation ELISA in PC-3 cells (Example F)
Type: cell-based
cond: cellular activity; Met autophosphorylation ELISA in PC-3 cells; read-out: c-Met IC50
value kind: IC50

molecule | reported
COc1cnc2c(Oc3ccc(NC(=O)c4c(C)n(C)c(C)c(-c5ccc(F)cc5)c4=O)cc3F)ccnc2c1 [Compound 508] | < 100 nM
COc1cc2nccc(Oc3ccc(NC(=O)c4cnc(C)c(-c5ccc(F)cc5)c4O)cc3)c2nc1OC(C)C [Compound 413] | < 100 nM
COc1cc2nccc(Oc3ccc(NC(=O)c4c(OC)c(C)cn(-c5ccc(F)cc5)c4=O)cc3F)c2nc1OC [Compound 372] | < 100 nM
COc1cnc2c(Oc3cc(F)c(NC(=O)c4c(C)nc(C)c(-c5ccc(F)cc5F)c4O)cc3F)ccnc2c1 [Compound 779] | < 100 nM
COc1ccc2nccc(Oc3ccc(NC(=O)c4c(C)ncc(-c5ccc(F)cc5C)c4O)cc3)c2n1 [Compound 493] | < 100 nM
COc1cc2nccc(Oc3ccc(NC(=O)c4c(C)n(C)c(C)c(-c5ccc(F)cc5)c4=O)cc3F)c2nc1OC [Compound 511] | < 100 nM
COc1cc2nccc(Oc3ccc(NC(=O)c4nn(C)c(C)c(-c5ccc(F)cc5C)c4=O)cc3F)c2nc1OC [Compound 512] | < 100 nM
COCc1nc(C)c(-c2ccc(F)cc2)c(O)c1C(=O)Nc1ccc(Oc2ccnc3ccc(OC)cc23)c(F)c1 [Compound 525] | < 100 nM
COc1cc2nccc(Oc3ccc(NC(=O)c4cn(C)c(C)c(-c5ccc(F)cc5)c4=O)cc3C)c2nc1OC [Compound 763] | < 100 nM
COc1cc2nccc(Oc3ccc(NC(=O)c4c(C)ncc(-c5ccc(F)cc5)c4O)cc3)c2nc1OC [Compound 235] | < 100 nM
COc1cnc2c(Oc3ccc(NC(=O)c4c(C)n(CC(F)(F)F)cc(-c5ccc(F)cc5)c4=O)cc3F)ccnc2c1 [Compound 790] | < 100 nM
COc1cc2nccc(Oc3ccc(NC(=O)c4nnc(C)c(-c5ccc(F)cc5)c4OC)cc3F)c2nc1OC [Compound 531] | < 100 nM
COc1cc2c(Oc3ccc(NC(=O)c4ccc(C)n(-c5ccc(F)cc5)c4=O)cc3F)ccnc2cn1 [Compound 494] | < 100 nM
C=Cc1cc2nccc(Oc3ccc(NC(=O)c4cnc(C)c(-c5ccc(F)cc5C)c4O)cc3F)c2nc1OC [Compound 423] | < 100 nM
